- Test system: HCI03 (cells of an ER-positive luminal breast cancer xenograft)
- Experimental details: cell viability (% of vehicle); higher = less cytotoxic;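 further: PDX cells carrying CMV promoter-driven luciferase, viability read as total photon flux per second by IVIS imaging following D-luciferin, vehicle control 0.1% DMSO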
- Details: 10 µM; 72 h

# Compound, cell viability
data = [
    ("Oc1ccc(OCc2ccccc2)cc1 [Monobenzone]", 180),
    ("Cc1ccccc1C(=O)Nc1ccc(C(=O)N2CCCC(O)c3cc(Cl)ccc32)c(C)c1 (stereo unspecified) [Tolvaptan]", 138),
    ("CCN(CC)CCOc1ccc(C(=C(Cl)c2ccccc2)c2ccccc2)cc1.O=C(O)CC(O)(CC(=O)O)C(=O)O [Clomiphene citrate]", 51.5),
    ("C1CNCCN1.C[C@@]12CC[C@H]3c4ccc(OS(=O)(=O)O)cc4CC[C@H]3[C@H]1CCC2=O [Estropipate]", 173),
    ("CCOC(=O)CC(=O)N1CCSC1COc1ccccc1OC (stereo unspecified) [Moguisteine]", 114),
    ("CS(=O)(=O)N1CCN(Cc2cc3nc(-c4cccc5[nH]ncc45)nc(N4CCOCC4)c3s2)CC1", 94.8),
    ("Oc1ccc(OC2CCCCO2)cc1 (stereo unspecified) [Deoxyarbutin]", 138),
    ("CC(=O)OC12COC1CC(O)C1(C)C(=O)C(O)C3=C(C)C(OC(=O)C(O)C(NC(=O)OC(C)(C)C)c4ccccc4)CC(O)(C(OC(=O)c4ccccc4)C21)C3(C)C.O.O.O (stereo unspecified) [Docetaxel Trihydrate]", 96.7),
    ("CCCCCCCCCCCCCCCCOP(=O)([O-])OCC[N+](C)(C)C [Miltefosine]", 108),
    ("OCCOCCN1CCN(C2=Nc3ccccc3Sc3ccccc32)CC1 [Quetiapine]", 109),
    ("CCCCCCOC(=O)N=C(N)c1ccc(NCc2nc3cc(C(=O)N(CCC(=O)OCC)c4ccccn4)ccc3n2C)cc1", 124),
    ("Cc1nccn1CC1CCc2c(c3ccccc3n2C)C1=O.Cl.O.O (stereo unspecified) [Ondansetron hydrochloride dihydrate]", 82.1),
    ("CCC1(O)CC2CN(CCc3c([nH]c4ccccc34)C(C(=O)OC)(c3cc4c(cc3OC)N(C)C3C(O)(C(=O)OC)C(OC(C)=O)C5(CC)C=CCN6CCC43C65)C2)C1 (stereo unspecified) [vinblastine]", 91.1),
    ("CCC(=O)OCC(=O)C1(OC(=O)CC)C(C)CC2C3CCC4=CC(=O)C=CC4(C)C3(F)C(O)CC21C (stereo unspecified) [Betamethasone Dipropionate]", 138),
    ("Cc1c(OCC(F)(F)F)ccnc1CS(=O)c1nc2ccccc2[nH]1 (stereo unspecified) [Lansoprazole]", 160),
    ("C=CC(=O)N1CCC(Oc2cc3c(Nc4ccc(Cl)c(Cl)c4F)ncnc3cc2OC)CC1 [Poziotinib]", 48.7),
]

----------
- Test system: WHIM2 (cells of a triple-negative basal-like breast cancer xenograft)
- Experimental details: cell viability (% of vehicle); higher = less cytotoxic
- Details: 10 µM; 72 h
In this section, each of the molecules is paired with its reported cell viability.

# Molecule, Tested on, cell viability
rows = [
    ("CN(C)CCCC1(c2ccc(F)cc2)OCc2cc(C#N)ccc21.O=C(O)C(=O)O (stereo not drawn) [Escitalopram Oxalate]", "WHIM2", 87.5),
    ("COc1cnc(NS(=O)(=O)c2ccc(N)cc2)nc1", "WHIM2", 92.2),
    ("Cc1ccc(-n2nc(C(C)(C)C)cc2NC(=O)Nc2ccc(OCCN3CCOCC3)c3ccccc23)cc1", "WHIM2", 89.8),
]

----------
- Tested on: HCI03
- Experimental details: cell viability (% of vehicle); higher = less cytotoxic
- Details: 10 µM; 72 h
Counter-ions that a name gives are not always drawn.
In this section, each of the molecules is paired with its reported cell viability.

# Molecule, Tested on, cell viability
measured = [
    ("CC(O)C1C(=O)N2C(C(=O)O)=C(SC3CNC(C(=O)N(C)C)C3)C(C)C12 (stereo unspecified)", "HCI03", 106),
    ("CN(C)CCC=C1c2ccccc2Sc2ccc(Cl)cc21", "HCI03", 87.1),
    ("CC(C)C(=O)OCC(=O)[C@@]12O[C@H](C3CCCCC3)O[C@@H]1C[C@H]1[C@@H]3CCC4=CC(=O)C=C[C@]4(C)[C@H]3[C@@H](O)C[C@@]12C [Ciclesonide]", "HCI03", 76.3),
    ("CC(C)c1c(C(=O)Nc2ccccc2)c(-c2ccccc2)c(-c2ccc(F)cc2)n1CCC(O)CC(O)CC(=O)[O-].CC(C)c1c(C(=O)Nc2ccccc2)c(-c2ccccc2)c(-c2ccc(F)cc2)n1CCC(O)CC(O)CC(=O)[O-].[Ca+2] (stereo unspecified)", "HCI03", 138),
    ("OCC(O)C(O)C(O)C(O)CO (stereo unspecified)", "HCI03", 132),
    ("CC(O)C(=O)O.CCOc1ccc2nc3cc(N)ccc3c(N)c2c1.O [Ethacridine lactate monohydrate]", "HCI03", 41.6),
    ("COc1nc2ccc(Br)cc2cc1[C@@H](c1ccccc1)[C@@](O)(CCN(C)C)c1cccc2ccccc12 [Bedaquiline fumarate]", "HCI03", 75.7),
    ("CCC(NC(=O)C(C)NC)C(=O)N1CC(O)CC1Cc1c(-c2[nH]c3cc(F)ccc3c2CC2CC(O)CN2C(=O)C(CC)NC(=O)C(C)NC)[nH]c2cc(F)ccc12 (stereo unspecified)", "HCI03", 99.5),
    ("CC1(C)SC2C(NC(=O)C(N)c3ccccc3)C(=O)N2C1C(=O)O.O.O.O (stereo unspecified) [Ampicillin Trihydrate]", "HCI03", 124),
    ("CNC(=O)c1cc(Oc2ccc(NC(=O)Nc3ccc(Cl)c(C(F)(F)F)c3)c(F)c2)ccn1.Cl [Regorafenib hydrochloride]", "HCI03", 114),
    ("CC(O)(P(=O)(O)O)P(=O)(O)O [Etidronate]", "HCI03", 96.6),
    ("O[C@@H]1CO[C@H]2[C@@H]1OC[C@@H]2O [Isosorbide]", "HCI03", 147),
    ("O=C(O)Cc1ccccc1Nc1c(Cl)cccc1Cl", "HCI03", 123),
    ("CCOc1ccc(Cc2cc(C3OC(CO)C(O)C(O)C3O)ccc2Cl)cc1 (stereo unspecified)", "HCI03", 113),
    ("COc1cc2ncnc(Nc3ccc(F)c(Cl)c3)c2cc1OCCCN1CCOCC1 [Gefitinib (ZD1839)]", "HCI03", 55.3),
    ("CCOc1cc(CC(=O)NC(CC(C)C)c2ccccc2N2CCCCC2)ccc1C(=O)O (stereo unspecified) [Repaglinide]", "HCI03", 131),
    ("NCC(O)c1ccc(O)c(O)c1.O.O=C(O)C(O)C(O)C(=O)O (stereo unspecified) [Noradrenaline bitartrate monohydrate]", "HCI03", 152),
    ("O=C(O)CO.[NH2-].[NH2-].[Pt+2]", "HCI03", 89),
    ("C[N+]1(C)[C@@H]2C[C@@H](OC(=O)C(O)(c3cccs3)c3cccs3)C[C@H]1[C@@H]1O[C@@H]12.[Br-] [Tiotropium Bromide]", "HCI03", 116),
    ("Clc1ccccc1C(c1ccccc1)(c1ccccc1)n1ccnc1", "HCI03", 70.8),
    ("CCC1OC(=O)C(C)C(OC2CC(C)(OC)C(O)C(C)O2)C(C)C(OC2OC(C)CC(N(C)C)C2O)C(C)(O)CC(C)CN(C)C(C)C(O)C1(C)O.O.O (stereo unspecified) [Azithromycin Dihydrate]", "HCI03", 114),
]

----------
- Test system: WHIM30 (cells of a triple-negative basal-like breast cancer xenograft)
- Experimental details: cell viability (% of vehicle); higher = less cytotoxic
- Details: 10 µM; 72 h
Response field label: string, one of yes (cell viability strictly below 100) or no.

# Molecule, Assigned category
measured = [
    ("CCCC(=O)OCOC(=O)C1=C(C)NC(C)=C(C(=O)OC)C1c1cccc(Cl)c1Cl (centres undefined) [Clevidipine Butyrate]", "yes"),
    ("CN1CCN(c2nc(C3=C(c4c[nH]c5ccccc45)C(=O)NC3=O)c3ccccc3n2)CC1", "no"),
    ("Cc1cc2c(cc1S(N)(=O)=O)S(=O)(=O)CCC2", "yes"),
    ("CC(C)Cn1cnc2c(N)nc3ccccc3c21", "no"),
    ("CC(=O)c1c(C)c2cnc(Nc3ccc(N4CCNCC4)cn3)nc2n(C2CCCC2)c1=O.O=S(=O)(O)CCO", "no"),
    ("CCCCCOC(=O)Nc1nc(=O)n(C2OC(C)C(O)C2O)cc1F (centres undefined)", "no"),
    ("Nc1nc(Cl)nc2c1ncn2C1OC(CO)C(O)C1F (centres undefined)", "no"),
    ("CCC1=C(C)CN(C(=O)NCCc2ccc(S(=O)(=O)NC(=O)NC3CCC(C)CC3)cc2)C1=O (centres undefined) [Glimepiride]", "no"),
    ("COC(=O)C1C2CC3c4[nH]c5cc(OC)ccc5c4CCN3CC2CC(OC(=O)c2cc(OC)c(OC)c(OC)c2)C1OC (centres undefined)", "no"),
    ("O=C(NCCO[N+](=O)[O-])c1cccnc1", "no"),
    ("CO[C@@]12[C@H](COC(N)=O)C3=C(C(=O)C(C)=C(N)C3=O)N1C[C@@H]1N[C@@H]12", "yes"),
    ("CCOC(=O)c1ccc(N)cc1", "no"),
]
